# System: NCI-H23
# Measurement Description: NCI tumour cell line growth inhibition, 48 h
Active and inactive are the calls of the source. No stated cut-off is given here; in the data, active = GI50 up to about 1.1 µM and inactive = higher.
The reply should be one of these categories: active, inactive

>  <Molecule>
COc1ccc(-c2nc3ccccc3s2)cc1OC

>  <Assigned Class>
inactive

$$$$

// param item: O=c1[nH]c(=O)c2c([nH]1)[nH]c1ccc(Br)cc12 ; yields the recorded call
inactive

// param item: CCCCCCCCP(=O)(O)OP(=O)(O)OCC1OC(n2ccc(N)nc2=O)C(O)C1O (stereo not drawn) ; yields the recorded call
inactive

// param item: CC[C@H](C)C1=C(OC(C)=O)[N@+]2([O-])Oc3ccc(-c4c(O)c(O)c(-c5ccc(OC(C)=O)cc5)c(OC(C)=O)c4OC(C)=O)cc3O[C@]2([C@@H](C)CC)C(=O)N1O ; yields the recorded call
inactive

// param item: COc1ccccc1-c1nc[nH]c1-c1ccccc1OC ; yields the recorded call
inactive

// param item: COC(=O)C1[C@H](c2cc(OC)c(OC)c(OC)c2)OC(=O)C1(C(=O)OC)C(=O)c1ccc2c(c1)OCO2 (stereo partly drawn) ; yields the recorded call
inactive

// param item: CCOC(=O)/C(C(=O)Nc1ccc(F)cc1)=C(/N)N1CCCC1 ; yields the recorded call
active

// param item: Nc1nc(O)c([I+]c2ccccc2)c(=O)[nH]1 ; yields the recorded call
inactive

// param item: COc1nc(C#CC2(O)CCCCC2)nc(OC)n1 ; yields the recorded call
inactive

// param item: Cc1c2ccncc2c(C)c2c1[nH]c1ccc(OCC(F)(F)F)cc12 ; yields the recorded call
inactive

// param item: CN(C)C1(c2cc3ccccc3s2)CCCCC1 ; yields the recorded call
inactive

// param item: C[N+]1(C)CC=C(N2CCOCC2)CC1 ; yields the recorded call
inactive

---

# Test system: TK-10
# Measurement Description: NCI tumour cell line growth inhibition, 48 h
Active and inactive are the calls of the source. No stated cut-off is given here; in the data, active = GI50 up to about 1.1 µM and inactive = higher.
Provide the recorded GI50 for the entries that follow.

Examples with their reported GI50 follow.
>  <Molecule>
Cc1cc(=O)oc2cc(OCc3c(F)cccc3Cl)ccc12

>  <Outcome Measure>
GI50

>  <Meas Value>
> 100 µM (inactive)

$$$$
>  <Molecule>
O=C(O)CNc1ccc(C(=O)O)cc1

>  <Outcome Measure>
GI50

>  <Meas Value>
> 100 µM (inactive)

$$$$
>  <Molecule>
CC(=O)C(CN(CC(C)C)CC(C)C)C(c1ccccc1)c1c(O)c2ccccc2oc1=O (configuration not stated)

>  <Outcome Measure>
GI50

>  <Meas Value>
> 100 µM (inactive)

$$$$
>  <Molecule>
O=C(Nc1nc2c(ncn2C2OC(CO)C(O)C2O)c(=O)[nH]1)c1ccccc1 (configuration not stated)

>  <Outcome Measure>
GI50

>  <Meas Value>
> 100 µM (inactive)

$$$$
>  <Molecule>
N#CS/C(Cl)=C(/C(Cl)=C(Cl)Cl)[N+](=O)[O-]

>  <Outcome Measure>
GI50

>  <Meas Value>
> 100 µM (inactive)

$$$$
>  <Molecule>
COC(=O)C1[C@H](c2cc(OC)c(OC)c(OC)c2)OC(=O)C1(C(=O)OC)C(=O)c1ccc2c(c1)OCO2 (some centres not stated)

>  <Outcome Measure>
GI50

>  <Meas Value>
> 100 µM (inactive)

$$$$

Kindly give each listed record's GI50.
1. Cc1nc(O)nc(NNCc2ccc(Cl)cc2)c1C(=O)Nc1ccc(Cl)cc1
2. CC1(C)OC(=O)C(Cc2ccccc2)(Cc2ccccc2)C(=O)O1
3. CCN1/C(=C/C#C/C(C)=C\c2sc3ccccc3[n+]2CC)Sc2ccccc21
4. CCN(CC)c1ccc(/C=C2\CCc3ccc([N+](=O)[O-])cc3C2=O)cc1
5. CCCCCCCCP(=O)(O)OP(=O)(O)OCC1OC(n2ccc(N)nc2=O)C(O)C1O (configuration not stated)
6. O=C1OC(/C=C/c2ccccc2)C(=O)C1=O (configuration not stated)

1. > 100 µM (inactive)
2. > 100 µM (inactive)
3. 3.24 µM (inactive)
4. 2.86 µM (inactive)
5. > 100 µM (inactive)
6. > 100 µM (inactive)
